From: ChEMBL document CHEMBL3124848

biological target: Transthyretin (Homo sapiens, UniProt P02766, V50M); assay: Inhibition of transthyretin V30M mutant (unknown origin) expressed in Escherichia coli assessed as inhibition of sodium acetate-mediated aggregation preincubated for 30 mins followed by sodium acetate addition measured after 96 hrs by thioflavin T assay
endpointName: pIC50
For clarity, pIC50 is expressed as the negative log10 of concentration in mol/L.

Input line: Which pIC50 value belongs to O=c1c(-c2ccc(O)cc2)coc2cc(O)cc(O)c12 ?
Output line: 5.11

Input line: Please give the result for CC1(C)C=Cc2c(ccc3c2OC[C@@H](c2ccc(O)cc2O)C3)O1 too.
Output line: 5.19

Input line: Please give the result for Oc1ccc([C@@H]2COc3cc(O)ccc3C2)cc1 too.
Output line: 4.89

Input line: Also, O=c1c(-c2ccc(O)cc2)coc2cc(O)ccc12 please.
Output line: 4.80

Input line: Next compound up: O=c1cc(-c2ccc(O)c(O)c2)oc2cc(O)cc(O)c12
Output line: 5.19
